The entries that follow carry IC50 values tested on Cytochrome P450 3A4 (Homo sapiens, UniProt P08684), drawn from several published reports.
Sequence (P08684 whole entry): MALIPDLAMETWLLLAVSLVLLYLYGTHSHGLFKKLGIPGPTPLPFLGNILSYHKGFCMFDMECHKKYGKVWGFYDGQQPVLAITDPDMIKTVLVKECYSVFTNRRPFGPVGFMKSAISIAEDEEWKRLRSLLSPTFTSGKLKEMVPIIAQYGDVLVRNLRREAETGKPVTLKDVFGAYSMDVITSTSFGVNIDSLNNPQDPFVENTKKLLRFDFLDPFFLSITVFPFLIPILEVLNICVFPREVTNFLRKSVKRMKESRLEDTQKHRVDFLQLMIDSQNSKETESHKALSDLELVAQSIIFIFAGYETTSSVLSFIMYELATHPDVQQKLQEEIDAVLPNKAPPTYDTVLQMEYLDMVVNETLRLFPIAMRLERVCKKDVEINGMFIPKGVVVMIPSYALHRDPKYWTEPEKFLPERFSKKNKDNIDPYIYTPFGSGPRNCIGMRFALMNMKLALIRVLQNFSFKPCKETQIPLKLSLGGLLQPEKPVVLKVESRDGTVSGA

Use the examples below as a reference point.
INSERT INTO results (smiles_notation, experimental_value) VALUES
  ('CC(C)N1CCC(Oc2cc3cc4n(c3cc2Br)[C@@H](C)CN(CC2CC2)C4=O)CC1', '> 50 µM'),
  ('Nc1nccn2c1c(-c1ccc3ccc(-c4ccccc4)nc3c1)nc2[C@H]1C[C@H](CN2CCOCC2)C1', '> 20 µM');

Q: Which IC50 value is on record for Cn1nc(-c2ccc(OCCCN3CCCCC3)cc2)c2c(c1=O)CCC2 ?
A: > 30 µM
